system: HeLa; test: Cytotoxicity against human HeLa cells assessed as growth inhibition at 10^-5 M after 72 hrs by MTT assay relative to control; assay type: functional; details: read-out: GI
Label rule, in plain words: inhibition of growth at 10 µM of 20% and up is Y, under 20% is N.

In [3]: df
Out[3]:
                                         mol  group
 0  COc1cc2cc(NC(=O)/C=C/c3cc(OC)c(OC)c(OC)c3)c(=O)oc2cc1O      N
 1  COc1cc2cc(NC(=O)/C=C/c3ccc(C(F)(F)F)cc3)c(=O)oc2cc1O      N
 2  COc1cc2cc(NC(=O)/C=C/c3ccc(C#N)cc3)c(=O)oc2cc1O      Y
 3   COc1cc2ccc(=O)oc2cc1OC(=O)/C=C/c1ccccc1      N
 4  COc1ccc(/C=C/C(=O)Nc2cc3cc(OC)c(O)cc3oc2=O)cc1      Y
 5  COc1cc(CCC(=O)Oc2cc3oc(=O)ccc3cc2OC)ccc1O      N
 6  COc1cccc2c1C(=O)c1c(O)c3c(c(O)c1C2=O)C[C@@](O)(C(=O)CO)C[C@@H]3O[C@H]1C[C@H](N)[C@H](O)[C@H](C)O1      Y
 7                     COc1cc2ccc(=O)oc2cc1O      N
 8  COc1cc(/C=C/C(=O)Oc2cc3oc(=O)ccc3cc2OC)ccc1OCc1ccccc1      N
 9  COc1cc2ccc(=O)oc2cc1OC(=O)/C=C/c1ccc(F)cc1      N
10  COc1cc2ccc(=O)oc2cc1OC(=O)/C=C/c1ccc(C#N)cc1      N
11  COc1cc2cc(NC(=O)/C=C/c3ccc(Cl)cc3)c(=O)oc2cc1O      Y
12  COc1cc2cc(NC(=O)/C=C/c3ccc(F)cc3)c(=O)oc2cc1O      Y
13  COc1cc2ccc(=O)oc2cc1OC(=O)/C=C/c1cc(OC)c(OC)c(OC)c1      N
14  COc1cc2ccc(=O)oc2cc1OC(=O)/C=C/c1ccc(Cl)cc1      Y
15  COc1cc2cc(NC(=O)/C=C/c3ccccc3)c(=O)oc2cc1O      Y

src = ChEMBL document CHEMBL3407428
